- run.description: Stability of linkers L1-L4 conjugated to FGF21 (LC-MS)
- Type: physicochemical
- experimental.setup: +4° C., 336 hrs (2 weeks)
- Protocol: The following experiment was performed to investigate the chemical stability over 2 weeks of the four linkers upon conjugation to FGF21: each linker was conjugated to FGF21, placed at +4° C. storage conditions, and aliquots were removed and quenched by freezing at specific time points, and linker stability was monitored by LCMS analysis. The four linkers were dissolved in DMSO from lyophilized stock material. […] L1 was reacted with protein for 30 mins; L2, L3 and L4 were reacted for 2 hrs. […]
outcome.measure: +(2) H2O
Remember to follow the number with its unit.

Please fill in: +(2) H2O reported for L4-FGF21ΔH-A129C: Linker-4 conjugated to FGF21ΔH-A129C protein (Table 4; Table 5 row L4) (conjugate, UniProt Q9NSA1 29-209, looked up, variant H1* A129C, Linker-4 attached) Fibroblast growth factor 21: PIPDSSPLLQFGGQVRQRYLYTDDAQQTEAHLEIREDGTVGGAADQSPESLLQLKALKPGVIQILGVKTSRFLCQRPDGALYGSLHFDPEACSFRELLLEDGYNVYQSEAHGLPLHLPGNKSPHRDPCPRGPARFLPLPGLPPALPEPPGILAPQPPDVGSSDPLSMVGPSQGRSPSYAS = 6%
